Target system: Human CB1R (Cannabinoid receptor 1) (Homo sapiens (Human))
Assay method text: CB-1 in vitro cAMP assay (HTRF), inverse agonism
Condition parameters: mean where tested more than once
pEC50: −log10 of the molar value.
Quantity name: pEC50

Study these solved cases before continuing.
| Compound | pEC50 |
| --- | --- |
| CC(C)S(=O)(=O)N1CCC(Nc2cc(=O)[nH]c3ccc(C(c4ccc(Cl)cc4)c4nccs4)cc23)CC1 (stereo not shown) | 6.69 |
| CC(C)(C)OC(=O)N1CC(CNc2cc(=O)[nH]c3ccc(C(c4ccc(Cl)cc4)c4nccs4)cc23)C1 (stereo not shown) | 5.63 |
| O=c1cc(NCc2cncc(C(F)(F)F)c2)c2cc(C(c3ccc(Cl)cc3)c3ccc(Cl)cc3)ccc2[nH]1 | 7.27 |
| O=c1cc(/C=C/c2cccc(C(F)(F)F)c2)c2cc(C(c3ccc(Cl)cc3)c3cccs3)ccc2[nH]1 (stereo not shown) | 6.48 |

(a) O=C(CC(F)(F)F)N1CCC(Nc2cc(=O)[nH]c3ccc(C(c4ccc(Cl)cc4)c4ccc(Cl)cc4)cc23)CC1
(b) COc1cc(NC2CCN(S(=O)(=O)C(F)(F)F)CC2)c2cc(C(c3ccc(Cl)cc3)c3ccc(Cl)cc3)cc(CCCO)c2n1
-- ask Which value of pEC50 is smaller, the one for a or the one for b ? In your reply, give the label of the chosen option.
-- reply b

----------
Target system: Human CB2R (Cannabinoid receptor 2) (Homo sapiens (Human), UniProt P34972)
Sequence (P34972 whole entry): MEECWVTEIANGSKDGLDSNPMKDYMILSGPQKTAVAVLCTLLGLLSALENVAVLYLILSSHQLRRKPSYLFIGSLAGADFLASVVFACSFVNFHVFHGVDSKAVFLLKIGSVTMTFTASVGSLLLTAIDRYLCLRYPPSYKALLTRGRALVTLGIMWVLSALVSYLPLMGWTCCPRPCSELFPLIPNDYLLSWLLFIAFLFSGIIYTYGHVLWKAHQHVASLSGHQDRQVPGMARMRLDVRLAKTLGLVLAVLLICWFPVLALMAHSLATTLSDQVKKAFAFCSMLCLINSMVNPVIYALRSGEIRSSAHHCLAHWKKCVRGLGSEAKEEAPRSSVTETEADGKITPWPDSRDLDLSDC
Assay method text: CB-2 in vitro cAMP assay (HTRF), inverse agonism
Condition parameters: mean where tested more than once
Description: CB1 and CB2 receptors are Gi-coupled GPCR. Activation of CB1 and CB2 receptors results in a decrease in cAMP production. An inverse agonist of the CB1 or CB2 receptor results in the opposite effect, an increase of cAMP production. The principle of this assay is based on HTRF® technology (Homogeneous Time-Resolved Fluorescence). […] The tracer binding is quantified by a Mab anti-cAMP labeled with Eu3+TBP-NHS Cryptate (supplied as part of the assay kit). […]
pEC50: −log10 of the molar value.
Quantity name: pEC50

| Smiles repr | pEC50 |
| --- | --- |
| CS(=O)(=O)N1CCC(Nc2cc(=O)[nH]c3ccc(C(c4ccc(Cl)cc4)c4ccc(Cl)cc4)cc23)CC1 | 5.58 |

(1) CCOC(=O)CCCCOc1cc(C(c2ccc(Cl)cc2)c2ccc(Cl)cc2)cc2c(NC3CCN(S(=O)(=O)C(F)(F)F)CC3)ccnc12
(2) O=S(=O)(Oc1cc(C2=CCN(S(=O)(=O)C(F)(F)F)CC2)c2cc(C(c3ccc(Cl)cc3)c3ccc(Cl)cc3)ccc2n1)C(F)(F)F
-- ask Kindly identify which of 1 and 2 has the larger recorded pEC50 value. In your reply, give the label of the chosen option.
-- reply 2
(2: 7.40, 1: 5.15)

----------
Target system: UniProt P21554
Assay method text: CB-1 in vitro cAMP assay (HTRF), inverse agonism
Condition parameters: mean where tested more than once
Quantity name: EC50 (nM)

| Molecule | Target system | Result number |
| --- | --- | --- |
| O=c1cc(/C=C/c2cccc(F)c2)c2cc(C(c3ccccc3)c3ccc(Cl)cc3)ccc2[nH]1 (stereo not shown) | UniProt P21554 | 3200 |
| CC(Nc1cc(=O)[nH]c2ccc(C(c3ccc(Cl)cc3)c3ccc(Cl)cc3)cc12)c1cccc(C(F)(F)F)c1 (stereo not shown) | UniProt P21554 | 36 |

(I) O=C(O)CC(=O)N1CCC(Nc2cc(=O)[nH]c3ccc(C(c4ccc(Cl)cc4)c4ccc(Cl)cc4)cc23)CC1
(II) O=c1cc(CCc2cccc(Cl)c2)c2cc(C(O)(c3ccc(Cl)cc3)c3nccs3)ccc2[nH]1 (stereo not shown)
-- ask Which value of EC50 is smaller, the one for I or the one for II ? In your reply, give the label of the chosen option.
-- reply I
(I: 220 nM, II: 876 nM)

----------
Target system: Human CB2R (Cannabinoid receptor 2) (Homo sapiens (Human), UniProt P34972)
Assay method text: CB-2 in vitro cAMP assay (HTRF), inverse agonism
Condition parameters: mean where tested more than once
Quantity name: EC50 (µM)

Study these solved cases before continuing.
| Molecule | Quantity name | Result number |
| --- | --- | --- |
| O=c1cc(C2=CCN(S(=O)(=O)C(F)(F)F)CC2)c2cc(C(c3ccc(Cl)cc3)c3ccc(Cl)cc3)ccc2[nH]1 | EC50 | 0.08 |
| O=c1cc(/C=C/c2cccc(F)c2)c2cc(C(c3ccc(Cl)cc3)c3ccsc3)ccc2[nH]1 (stereo not shown) | EC50 | 0.09 |
| O=c1cc(NC2CCN(S(=O)(=O)C(F)(F)F)CC2)c2cc(C(c3ccc(Cl)cc3)c3ccc4c(c3)OCO4)ccc2[nH]1 (stereo not shown) | EC50 | 0.84 |

(A) O=c1cc(N[C@@H]2CCN(S(=O)(=O)C(F)(F)F)C2)c2cc(C(c3ccc(Cl)cc3)c3nccs3)ccc2[nH]1 (stereo partly shown)
(B) COc1cc(C(c2ccc(Cl)cc2)c2ccc(Cl)cc2)cc2c(NC3CCN(S(=O)(=O)C(F)(F)F)CC3)ccnc12
-- ask Kindly identify which of A and B has the larger recorded EC50 value. In your reply, give the label of the chosen option.
-- reply A

----------
Target system: Human CB1R (Cannabinoid receptor 1) (Homo sapiens (Human), UniProt P21554)
Sequence (P21554 whole entry): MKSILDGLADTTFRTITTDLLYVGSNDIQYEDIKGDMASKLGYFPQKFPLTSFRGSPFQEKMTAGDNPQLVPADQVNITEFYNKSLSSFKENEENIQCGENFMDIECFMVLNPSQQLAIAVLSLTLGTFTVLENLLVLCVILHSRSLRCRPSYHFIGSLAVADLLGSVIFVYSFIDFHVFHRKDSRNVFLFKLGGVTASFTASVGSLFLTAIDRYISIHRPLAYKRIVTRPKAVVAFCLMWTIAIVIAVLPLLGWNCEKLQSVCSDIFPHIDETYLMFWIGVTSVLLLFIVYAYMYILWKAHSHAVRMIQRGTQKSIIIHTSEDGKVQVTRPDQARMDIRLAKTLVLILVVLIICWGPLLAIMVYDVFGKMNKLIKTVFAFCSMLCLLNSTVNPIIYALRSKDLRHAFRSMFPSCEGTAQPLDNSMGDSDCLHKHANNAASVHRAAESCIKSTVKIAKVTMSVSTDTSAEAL
Assay method text: CB-1 in vitro cAMP assay (HTRF), inverse agonism
Condition parameters: mean where tested more than once
Quantity name: EC50 (nM)

| Compound | Target system | EC50, nM |
| --- | --- | --- |
| COc1cc(NC2CCN(S(=O)(=O)C(F)(F)F)CC2)c2cc(C(c3ccc(Cl)cc3)c3ccc(Cl)cc3)cc(Br)c2n1 | Human CB1R (Cannabinoid receptor 1) (Homo sapiens (Human), UniProt P21554) | 121 |

(I) Clc1ccc(C(c2ccc3nccc(/C=C/c4ccccc4)c3c2)c2nccs2)cc1 (stereo not shown)
(II) O=C(c1ccc(Nc2cc(=O)[nH]c3ccc(C(c4ccc(Cl)cc4)c4ccc(Cl)cc4)cc23)cc1F)N1CCCC1
(III) O=c1cc(NC2CCN(S(=O)(=O)C(F)(F)F)CC2)c2cc(C(c3ccc(Cl)cc3)c3ccc(Cl)cc3)ccc2[nH]1
(IV) CNC(=O)COc1cc(NC2CCN(S(=O)(=O)C(F)(F)F)CC2)c2cc(C(c3ccc(Cl)cc3)c3ccc(Cl)cc3)ccc2n1
-- ask // sort entries: EC50, high to low Dear reader, please state the labels in the requested order.
-- reply II, I, IV, III
(II: 227 nM, I: 136 nM, IV: 38 nM, III: 8 nM)

----------
Parameter: EC50. Scope: all listed entries.
Target system: Human CB1R (Cannabinoid receptor 1) (Homo sapiens (Human))
Assay method text: CB-1 in vitro cAMP assay (HTRF), inverse agonism
Condition parameters: mean where tested more than once

| Compound | Result |
| --- | --- |
| OC(c1ccc(Cl)cc1)(c1ccc(Cl)cc1)c1ccc2nccc(/C=C/c3ccccc3)c2c1 | > 10 µM |

-- ask Param item = OC(c1ccc(Cl)cc1)(c1ccc2nccc(/C=C/c3ccccc3)c2c1)c1cccs1 (stereo not drawn) ; retrieve measured EC50.
-- reply > 10 µM

-- ask Quick one: CCOC(=O)CCCNc1cc(C(O)(c2ccc(Cl)cc2)c2ccc(Cl)cc2)cc2c(NC3CCN(S(=O)(=O)C(F)(F)F)CC3)cc(OC(C)(C)C)nc12
-- reply > 10 µM

----------
Target system: Human CB1R (Cannabinoid receptor 1) (Homo sapiens (Human), UniProt P21554)
Assay method text: CB-1 in vitro cAMP assay (HTRF), inverse agonism
Condition parameters: mean where tested more than once
Quantity name: EC50 (nM)

| Molecule | Result number |
| --- | --- |
| COc1cc(C(c2ccc(Cl)cc2)c2ccc(Cl)cc2)cc2c(NC3CCN(S(=O)(=O)C(F)(F)F)CC3)ccnc12 [Compound 536] | 100 |
| O=c1cc(/C=C/c2cccc(F)c2)c2cc(C(c3ccc(Cl)cc3)c3nccs3)ccc2[nH]1 (stereo not shown) [Compound 38] | 497 |
| O=c1cc(NC2CCN(S(=O)(=O)C(F)(F)F)CC2)c2cc(C(c3ccc(F)cc3)c3ccc(Cl)cc3)ccc2[nH]1 (stereo not shown) [Compound 52] | 23 |
| O=c1cc(NC2CCN(S(=O)(=O)C(F)(F)F)CC2)c2cc(C(Cc3ccc(F)cc3)c3ccc(Cl)cc3)ccc2[nH]1 (stereo not shown) [Compound #135] | 1100 |
| CCOC(=O)CCCNc1cc(C(c2ccc(Cl)cc2)c2ccc(Cl)cc2)cc2c(NC3CCN(S(=O)(=O)C(F)(F)F)CC3)cc(=O)[nH]c12 [Compound 104] | 1120 |

(I) O=c1cc(Nc2ccc(Cl)c(F)c2)c2cc(C(c3ccc(Cl)cc3)c3ccc(Cl)cc3)ccc2[nH]1 [Compound 83]
(II) Clc1ccc(C(c2ccsc2)c2ccc3nccc(/C=C/c4ccccc4)c3c2)cc1 (stereo not shown) [Compound 509]
-- ask Which value of EC50 is smaller, the one for I or the one for II ? In your reply, give the label of the chosen option.
-- reply I
(I: 11 nM, II: 140 nM)
